PROTOCOL_DESCRIPTION: Tissue distribution study in rats
Format: in vivo, SD rats
CONDITION_PARAMETERS: male, Sprague-Dawley, rat, lung, single oral dose 100 mg/kg, read-out: Kp (tissue plasma distribution coefficient)
From the text: Compound 25a was extensively distributed in most tissues of rats, and the drug concentration was high in organs with abundant hemoperfusions, such as the kidney, heart, lung, and spleen, among which the drug concentration was the highest in the kidney, with a tissue plasma distribution coefficient Kp = 1.67. […]
MEASURED_ENDPOINT: Kp
Respond using a number only.

Indicate its recorded Kp; the compound in question is CC(=O)Nc1ccc(NC(=O)c2ccc(C(C)=O)o2)cc1 [Compound 25a]
0.72

* * *

PROTOCOL_DESCRIPTION: Pharmacokinetic study in rats (plasma, LC-MS/MS, NCA)
CONDITION_PARAMETERS: male, Sprague-Dawley, rat, plasma, po, 100 mg/kg, half-life, rats, single oral doses 25, 50, 100 mg/kg
MEASURED_ENDPOINT: half-life

Provide half-life value for the following compound: CC(=O)Nc1ccc(NC(=O)c2ccc(C(C)=O)o2)cc1 [Compound 25a]
2.6 to 3 h

* * *

PROTOCOL_DESCRIPTION: Tissue distribution study in rats
Assay type: in vivo, SD rats
CONDITION_PARAMETERS: male, Sprague-Dawley, rat, heart, single oral dose 100 mg/kg
MEASURED_ENDPOINT: half-life (min)
Express your answer in min, writing the number without its unit.

Give half-life for the following compound: CC(=O)Nc1ccc(NC(=O)c2ccc(C(C)=O)o2)cc1 [Compound 25a]
210

* * *

PROTOCOL_DESCRIPTION: Tissue distribution study in rats
Format: in vivo, SD rats
CONDITION_PARAMETERS: male, Sprague-Dawley, rat, bone, single oral dose 100 mg/kg
MEASURED_ENDPOINT: Cmax (ng/mL)
Supply the numeric figure in ng/mL, leaving out any unit text.

In one line, give reported Cmax of the entry CC(=O)Nc1ccc(NC(=O)c2ccc(C(C)=O)o2)cc1 [Compound 25a] .
413

* * *

PROTOCOL_DESCRIPTION: Plasma protein binding by equilibrium dialysis, rat plasma
Format: in vitro ADME, SD rats
CONDITION_PARAMETERS: Sprague-Dawley, rat plasma, 50, 500, 2500 ng/mL, read-out: mean plasma protein binding (PPB) (converted)
MEASURED_ENDPOINT: fraction unbound at 5 h

Input CC(=O)Nc1ccc(NC(=O)c2ccc(C(C)=O)o2)cc1 [Compound 25a] , output reported fraction unbound at 5 h.
~0.4

* * *

PROTOCOL_DESCRIPTION: Pharmacokinetic study in rats (plasma, LC-MS/MS, NCA)
CONDITION_PARAMETERS: male, Sprague-Dawley, rat, plasma, po, 50 mg/kg, Mean plasma concentration, rats, 0.083 h, single p.o. 50 mg/kg
MEASURED_ENDPOINT: concentration at 0.083 h (ng/mL)
Give the value in ng/mL but do not write ng/mL after it.

Report measured concentration at 0.083 h; entry is CC(=O)Nc1ccc(NC(=O)c2ccc(C(C)=O)o2)cc1 [Compound 25a]
236

* * *

PROTOCOL_DESCRIPTION: Pharmacokinetic study in rats (plasma, LC-MS/MS, NCA)
CONDITION_PARAMETERS: male, Sprague-Dawley, rat, plasma, po, 100 mg/kg, Mean plasma concentration, rats, 0.25 h, single p.o. 100 mg/kg
MEASURED_ENDPOINT: concentration at 0.25 h (ng/mL)
API: value field is a number in ng/mL; no unit string.

Give concentration at 0.25 h for CC(=O)Nc1ccc(NC(=O)c2ccc(C(C)=O)o2)cc1 [Compound 25a]
1210

* * *

PROTOCOL_DESCRIPTION: Tissue distribution study in rats
Assay type: in vivo, SD rats
CONDITION_PARAMETERS: male, Sprague-Dawley, rat, muscle, single oral dose 100 mg/kg
Excerpt: Compound 25a was extensively distributed in most tissues of rats, and the drug concentration was high in organs with abundant hemoperfusions, such as the kidney, heart, lung, and spleen, among which the drug concentration was the highest in the kidney, with a tissue plasma distribution coefficient Kp = 1.67. […]
MEASURED_ENDPOINT: AUC(0-t) (ng·h/mL)
Output spec: scalar in ng·h/mL, unitless text.

Output measured AUC(0-t) for this item: CC(=O)Nc1ccc(NC(=O)c2ccc(C(C)=O)o2)cc1 [Compound 25a]
4000

* * *

PROTOCOL_DESCRIPTION: Tissue distribution study in rats
Format: in vivo, SD rats
CONDITION_PARAMETERS: male, Sprague-Dawley, rat, testis, single oral dose 100 mg/kg
MEASURED_ENDPOINT: Cmax (ng/mL)
Give your result in ng/mL as a bare value.

Indicate its recorded Cmax; the compound in question is CC(=O)Nc1ccc(NC(=O)c2ccc(C(C)=O)o2)cc1 [Compound 25a]
50.6

* * *

PROTOCOL_DESCRIPTION: Tissue distribution study in rats
Assay type: in vivo, SD rats
CONDITION_PARAMETERS: male, Sprague-Dawley, rat, brain, single oral dose 100 mg/kg
MEASURED_ENDPOINT: Cmax (ng/mL)
Lab book: enter the figure in ng/mL, no units written.

Report Cmax for CC(=O)Nc1ccc(NC(=O)c2ccc(C(C)=O)o2)cc1 [Compound 25a]
820

* * *

PROTOCOL_DESCRIPTION: Pharmacokinetic study in rats (plasma, LC-MS/MS, NCA)
CONDITION_PARAMETERS: male, Sprague-Dawley, rat, plasma, po, 25 mg/kg
MEASURED_ENDPOINT: AUC(0-inf)
Please don't drop the unit; write it after the number.

Give reported AUC(0-inf) value for CC(=O)Nc1ccc(NC(=O)c2ccc(C(C)=O)o2)cc1 [Compound 25a]
2530 ng·h/mL

* * *

PROTOCOL_DESCRIPTION: Tissue distribution study in rats
Assay type: in vivo, SD rats
CONDITION_PARAMETERS: male, Sprague-Dawley, rat, brain, single oral dose 100 mg/kg, read-out: Kp (tissue plasma distribution coefficient)
MEASURED_ENDPOINT: Kp

Output Kp of CC(=O)Nc1ccc(NC(=O)c2ccc(C(C)=O)o2)cc1 [Compound 25a]
0.27

* * *

PROTOCOL_DESCRIPTION: in vivo
CONDITION_PARAMETERS: male, Sprague-Dawley, rat, po
MEASURED_ENDPOINT: MRT

Indicate the recorded MRT value for this molecule: CC(=O)Nc1ccc(NC(=O)c2ccc(C(C)=O)o2)cc1 [Compound 25a]
~5.4 h

* * *

PROTOCOL_DESCRIPTION: Pharmacokinetic study in rats (plasma, LC-MS/MS, NCA)
CONDITION_PARAMETERS: male, Sprague-Dawley, rat, plasma, po, 50 mg/kg, tmax, rats, single p.o. 50 mg/kg
MEASURED_ENDPOINT: Tmax (min)
Could you give me the number in min? Just the number is fine.

Supply reported Tmax belonging to this molecule: CC(=O)Nc1ccc(NC(=O)c2ccc(C(C)=O)o2)cc1 [Compound 25a]
30

* * *

PROTOCOL_DESCRIPTION: Pharmacokinetic study in rats (plasma, LC-MS/MS, NCA)
CONDITION_PARAMETERS: male, Sprague-Dawley, rat, plasma, iv, 1 mg/kg
MEASURED_ENDPOINT: AUC(0-t) (ng·h/mL)
Output spec: scalar in ng·h/mL, unitless text.

Assign AUC(0-t) to the following record: CC(=O)Nc1ccc(NC(=O)c2ccc(C(C)=O)o2)cc1 [Compound 25a]
501

* * *

PROTOCOL_DESCRIPTION: Plasma protein binding by equilibrium dialysis, rat plasma
Type: in vitro ADME, SD rats
CONDITION_PARAMETERS: SD, rat plasma, 500 ng/mL
Procedure: The plasma protein binding (PPB) and blood plasma ratio (BPR) are crucial parameters influencing the drug distribution and elimination in plasma. The PPB profile of 25a was evaluated by equilibrium dialysis, a classic method to assess the interactions of small molecules with proteins. The PPB of 25a was tested at 50, 500, and 2500 ng/mL (Table 7). […] The plasma protein binding (PPB) ratio of 25a was assessed via equilibrium dialysis in SD rats and human plasma. […]
MEASURED_ENDPOINT: fraction unbound at 5 h, 500 ng/mL
# print the numeric value only

For the molecule CC(=O)Nc1ccc(NC(=O)c2ccc(C(C)=O)o2)cc1 [Compound 25a] , give its measured fraction unbound at 5 h, 500 ng/mL value.
0.386

* * *

PROTOCOL_DESCRIPTION: Plasma protein binding by equilibrium dialysis, human plasma
Format: in vitro ADME
CONDITION_PARAMETERS: human, plasma, human plasma, 2500 ng/mL
MEASURED_ENDPOINT: fraction unbound at 5 h, 2500 ng/mL
Enter a number only.

Tell me its fraction unbound at 5 h, 2500 ng/mL given CC(=O)Nc1ccc(NC(=O)c2ccc(C(C)=O)o2)cc1 [Compound 25a] as the entry.
0.595
